- System: cancer cell lines with a mutated or deleted p53
- TEST DETAILS: cell growth inhibition, mutated or deleted p53 lines
- Assay type: cell-based
- TEST PARAMETERS: read-out: IC50 of cell growth inhibition
ATTRIBUTE MEASURED: IC50

**Query** Consider the molecule CC(C)(C)C[C@@H]1N[C@@H](C(=O)N[C@H]2CC[C@H](O)CC2)[C@H](c2cccc(Cl)c2F)[C@]12C(=O)Nc1cc(Cl)ccc12 and give its measured IC50.
**Result** ≥ 10 µM
